Data credit: PubChem BioAssay (NCI)

Test system: U251 CNS
PROCEDURE DETAILS: NCI tumour cell line growth inhibition, 48 h
Reported values of TGI for individual entries

Record excerpt, results attached:
| COMPOUND | RESULT TYPE | OBSERVED MEASUREMENT |
| --- | --- | --- |
| CC1CC(C)CN(S(=O)(=O)c2cc(Cl)c(Oc3ccc([N+](=O)[O-])cc3Cl)c(Cl)c2)C1 (stereo not given) | TGI | > 100 µM |
| Cc1cn(CCCCCCOC(=O)NC(CCCN=C(N)N)C(=O)O)c(=O)[nH]c1=O (stereo not given) | TGI | > 100 µM |
| COc1ccc2c(c1)CCC1C2CCC2(C)C3=CC(O)CCC3CC12 (stereo not given) | TGI | 27.4 µM |
| O=C(O)c1c(-c2ccccc2)c(=O)[nH]c2ccccc12 | TGI | > 100 µM |
| COc1cc(-c2cc(/C=C/C(=O)c3ccc(N)cc3)[nH]n2)cc(OC)c1OC | TGI | 2.77 µM |
| COc1cc2c(/C=C3/C(=O)Nc4ccc(O)cc43)c(Cl)[nH]c2cc1C | TGI | 2.99 µM |
| S=c1[nH]n2c(Cc3ccccc3)nnc2s1 | TGI | > 100 µM |
| Cn1c2c(c3ccccc31)C1C(=O)N(c3ccccc3)C(=O)C1CC2 (stereo not given) | TGI | > 303 µM |

Sample C/C(=N\NC(C)(C)C)c1sc(-c2nc(C)c(/C(C)=N/NC(C)(C)C)s2)nc1C — what was its TGI?
> 100 µM

Moving on to the next compound: COc1ccc2c(-c3ccc(OCCN(C)C)cc3)c(Oc3ccccc3)c(=O)oc2c1
8.9 µM

Moving on to the next compound: CN(C)c1ccc(/C=c2/c3ccccc3n3c2cc(-c2ccc(Cl)cc2)[n+]3C)cc1
1.09 µM

Moving on to the next compound: CC1CC2=C(C1)C(C1(C)C(=O)CC3C(C1=O)C3(C)C)C(C)C2=O (stereo not given)
> 100 µM

Moving on to the next compound: O=P(O)(O)OC1OC(CO)C(O)C(O)C1O (stereo not given)
> 100 µM

Moving on to the next compound: CNC(=S)N/N=C(\C)c1cc(OC)ccc1O
> 100 µM

Moving on to the next compound: CCc1nnc(CC)n1-n1c(Cc2ccccc2)n[nH]c1=O
> 100 µM

* * *

System: TK-10 renal
PROCEDURE DETAILS: NCI tumour cell line growth inhibition, 48 h
RESULT TYPE: TGI (µM)
Just the number please, in µM, no unit attached.

Sample O=C1c2ccccc2C(=O)c2c1ccc(C(Br)Br)c2Cl — what was its TGI?
12.3

* * *

Test system: MALME-3M melanoma
PROCEDURE DETAILS: NCI tumour cell line growth inhibition, 48 h
RESULT TYPE: TGI

| MOLECULE | TARGET ENTITY | TGI |
| --- | --- | --- |
| COc1ccc(N=Nc2c(O)ccc3ccccc23)cc1 | MALME-3M melanoma | 32.9 µM |
| N#Cc1cc(-c2nc3ccc(F)cc3s2)ccc1N | MALME-3M melanoma | > 100 µM |
| C[N+](C)(C)CC(=O)N/N=C(/Cc1nc2ccc(Cl)cc2[nH]c1=O)C1=NS(=O)(=O)c2cc(S(N)(=O)=O)c(Cl)cc2N1 | MALME-3M melanoma | > 100 µM |
| Cc1cc(C)c(C2CC(O)C(CO)O2)cc1C (stereo not given) | MALME-3M melanoma | > 100 µM |
| CC1CC2=C(C1)C(C1(C)C(=O)CC3C(C1=O)C3(C)C)C(C)C2=O (stereo not given) | MALME-3M melanoma | > 100 µM |

Sample Cc1c(Cl)ccc2c1NC(=O)C2(O)CC(=O)c1ccc2ccccc2c1 (stereo not given) — what was its TGI?
> 100 µM

Moving on to the next molecule: O=C(/C=C(\N=P(c1ccccc1)(c1ccccc1)c1ccccc1)C(F)(F)C(F)(F)C(F)(F)C(F)(F)C(F)(F)C(F)(F)C(F)(F)F)c1ccccc1
> 100 µM

Moving on to the next molecule: CC[N+](CC)(CC)Cc1cc2ccccc2n1C(=O)OC
> 100 µM

Moving on to the next molecule: Cn1c2c(c3ccc(-c4ccn[nH]4)cc3c1=O)C(=O)c1ccccc1-2
> 100 µM

Moving on to the next molecule: CC(C)CCC[C@@H](C)[C@H]1CCC2C3=CCn4c(=O)ccc(=O)n4C3CC[C@@]21C (stereo not given in full)
2.92 µM

Moving on to the next molecule: CNc1cc(OCc2ccccc2)c(OC)cc1C(=O)N1CCC[C@H]1CO
> 100 µM

Moving on to the next molecule: C=C(CN(C)C)C1(c2ccccc2)CC2(CCCC2)C(=O)O1 (stereo not given)
> 100 µM

Moving on to the next molecule: N#CC(NCCc1ccccc1)c1ccccc1 (stereo not given)
> 100 µM

Moving on to the next molecule: CC(C)(C)c1ccc2c(c1)C(O)(c1ccccc1)c1cc(C(C)(C)C)ccc1C2(O)C(F)(F)F (stereo not given)
5.56 µM
